test system: A172 (human brain glioblastoma); assay: MTT antiproliferative assay, A172; format: cell-based; settings: Homo sapiens, A 172; MTT, 72 h, A172 cells; read-out: IC50 ± SD A172
pIC50: −log10 of the molar value.
test-readout: pIC50

State pIC50 on A172 (human brain glioblastoma). Entry: O=C(O)CCCc1ccc(N(CCCl)CCCl)cc1 [chlorambucil, reference compound]
< 5.00

---

Target: mushroom tyrosinase (Agaricus bisporus)
Construct: purchased Sigma-Aldrich
Sequence (C7FF04 1-392 limits assumed): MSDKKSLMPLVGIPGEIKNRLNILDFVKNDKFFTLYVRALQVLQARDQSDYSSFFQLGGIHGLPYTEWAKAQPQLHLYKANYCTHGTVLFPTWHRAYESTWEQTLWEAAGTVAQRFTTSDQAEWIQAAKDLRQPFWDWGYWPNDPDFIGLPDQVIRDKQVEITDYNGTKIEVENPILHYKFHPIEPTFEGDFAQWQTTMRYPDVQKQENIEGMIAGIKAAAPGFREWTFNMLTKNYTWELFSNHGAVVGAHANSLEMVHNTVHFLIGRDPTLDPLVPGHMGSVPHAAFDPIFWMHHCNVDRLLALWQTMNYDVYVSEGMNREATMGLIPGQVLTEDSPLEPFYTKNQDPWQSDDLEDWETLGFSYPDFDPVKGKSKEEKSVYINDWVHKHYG
Experiment: Mushroom tyrosinase inhibition assay (L-DOPA, dopachrome 475 nm)
Assay type: biochemical
Conditions: L-DOPA 0.17 mM, pH 6.8, room temperature; read-out: IC50 ± SD mushroom tyrosinase
Method: The mushroom tyrosinase (Sigma-Aldrich) inhibition was performed following previously reported methods. […] The inhibitor solutions were prepared in DMSO with an initial concentration of 1 mM. Different aliquots were added to the solution containing the buffer, L-DOPA, and EDTA, with the enzyme being added last. […] The IC50 values were calculated from the equation generated via exponential fit of the experimental data.
test-readout: IC50 (µM)
// units = µM; emit number, no label

Respond only with IC50 recorded for O=C1O[C@H]([C@@H](O)CO)C(O)=C1O [Ascorbic acid, reference compound]
386
